meta.source: patent US10407409B2

Listing: PHD Inhibition (pIC50) of selected molecules
Biological target: PHD2 enzyme (residues 181-417) (Homo sapiens (Human))
Assay: Inhibition of PHD enzyme (LC/MS peptide hydroxylation assay)
Assay type: biochemical
Settings: PHD2 (residues 181-417) 5 nM, 60 min pre-incubation; -log(IC50), IC50 molar

Please review the following examples before continuing.
STRUCTURE_AS_SMILES: COc1cc(-c2cnn(-c3ccc(C(=O)NCCCn4ccnc4)cn3)c2O)ccn1
PHD Inhibition (pIC50): 7.8
//
STRUCTURE_AS_SMILES: Cn1ccc(-c2cnn(-c3ccc(C(=O)NCC4CCOCC4)cn3)c2O)cc1=O
PHD Inhibition (pIC50): 6.47
//
STRUCTURE_AS_SMILES: CCN1CCN(C(=O)c2ccc(-n3ncc(-c4ccc(C#N)c(F)c4C)c3O)nc2)[C@H](C)C1
PHD Inhibition (pIC50): 8.34

Proceed to the following item.
Tell me PHD Inhibition (pIC50) of `N#Cc1ccc(-c2cnn(-c3ccc(C(=O)NCC4CCOCC4)cn3)c2O)c(F)c1` when tested on PHD2 enzyme (residues 181-417) (Homo sapiens (Human)).
7.11

====

Biological target: PHD2 enzyme (residues 181-417) (Homo sapiens (Human), UniProt Q9GZT9)
Sequence (Q9GZT9 181-417): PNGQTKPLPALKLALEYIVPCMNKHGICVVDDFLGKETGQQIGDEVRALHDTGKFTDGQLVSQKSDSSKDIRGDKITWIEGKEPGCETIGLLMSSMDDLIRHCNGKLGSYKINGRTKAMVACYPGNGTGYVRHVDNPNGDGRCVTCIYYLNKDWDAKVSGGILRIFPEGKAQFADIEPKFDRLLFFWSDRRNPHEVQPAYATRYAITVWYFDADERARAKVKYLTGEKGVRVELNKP
Test: Inhibition of PHD enzyme (LC/MS peptide hydroxylation assay)
Format: biochemical
Details: PHD2 (residues 181-417) 5 nM, 60 min pre-incubation; -log(IC50), IC50 molar
Description: Example A Inhibition of PHD Enzyme The IC50 values for the PHD2 enzyme (residues 181-417) were determined by mixing increasing amounts of inhibitor with a fixed amount of enzyme (5 nM, final concentration) and Biotin labeled peptide (Biotin-Asp-Leu-Glu-Met-Leu-Ala-Pro-Tyr-Ile-Pro-Met-Asp-Asp-Asp-Phe-Gln-Leu, 1 uM final concentration) and 2-Oxyglutarate (2 uM final concentration) in 50 mM HEPES, 50 mM KCl, 0.5 mM TCEP, 2 uM FeCl2, 0.1 mg/ml BSA, at pH 7.3. […]
PARAMETER: PHD Inhibition (pIC50)
Lab note: jot down the number only; don't add units.

COMPOUND: COCC(C)NC(=O)c1ccc(-n2ncc(-c3ccc(C#N)cc3C)c2O)nc1 (centres unmarked) [Example 136]
PHD Inhibition (pIC50): 7.13
--
COMPOUND: Cc1c(-c2cnn(-c3ccc(C(=O)N4CCN(C)[C@H](C)C4)cn3)c2O)ccc(C#N)c1F [Example 340]
PHD Inhibition (pIC50): 8.39
--
COMPOUND: N#Cc1ccc(-c2cnn(-c3ccc(C(=O)NCc4ccccc4)cn3)c2O)cc1 [Example 281]
PHD Inhibition (pIC50): 7.37

Find PHD Inhibition (pIC50) for CC(C)NC(=O)c1ccc(-n2ncc(-c3ccc(C#N)cc3)c2O)nc1 [Example 159] on PHD2 enzyme (residues 181-417) (Homo sapiens (Human), UniProt Q9GZT9) and write it down.
7.15

Send back PHD2 enzyme (residues 181-417) (Homo sapiens (Human), UniProt Q9GZT9) PHD Inhibition (pIC50) of COc1cc(-c2cnn(-c3ccc(C(=O)NCCO)cn3)c2O)ccn1 [Example 25] only.
7.1

Give PHD Inhibition (pIC50) only, for CCN1CCN(C(=O)c2ccc(-n3ncc(-c4cc(F)c(C#N)cc4C)c3O)nc2)C[C@@H]1C [Example 397] , using PHD2 enzyme (residues 181-417) (Homo sapiens (Human), UniProt Q9GZT9) data.
8.52

Report PHD Inhibition (pIC50) from PHD2 enzyme (residues 181-417) (Homo sapiens (Human), UniProt Q9GZT9) testing of COCCCCNC(=O)c1ccc(-n2ncc(-c3ccc(C#N)cc3)c2O)nc1 [Example 235]
7.43

Look up PHD2 enzyme (residues 181-417) (Homo sapiens (Human), UniProt Q9GZT9) data: PHD Inhibition (pIC50) of Cc1cc(C#N)ccc1-c1cnn(-c2ccc(C(=O)N[C@H](C)C3CCOCC3)cn2)c1O [Example 63] , then report it.
7.25

====

Molecular target: PHD2 enzyme (residues 181-417) (Homo sapiens (Human), UniProt Q9GZT9)
Assay: Inhibition of PHD enzyme (LC/MS peptide hydroxylation assay)
Assay type: biochemical
Conditions: PHD2 (residues 181-417) 5 nM, 60 min pre-incubation; -log(IC50), IC50 molar
Reported values of PHD Inhibition (pIC50) for individual entries
Respond using a number only.

Please list PHD Inhibition (pIC50) recorded for the compound `Cc1cc(C#N)ccc1-c1cnn(-c2ccc(C(=O)N3CCN(C)C[C@H]3C)cn2)c1O`
8.18

Return the recorded PHD Inhibition (pIC50) value; entry: `COCC(C)(C)NC(=O)c1ccc(-n2ncc(-c3ccc(C#N)cc3C)c2O)nc1`
7.08

Identify PHD Inhibition (pIC50) associated with the compound `Cc1cc(C#N)c(F)cc1-c1cnn(-c2ccc(C(=O)N3CCN(C)[C@H](C)C3)cn2)c1O`
8.44

Please indicate PHD Inhibition (pIC50) recorded for Cc1cc(C#N)ccc1-c1cnn(-c2ccc(C(=O)N(C)CC3CCCN(C)C3)cn2)c1O (stereo not shown)
7.76

Give recorded PHD Inhibition (pIC50). `Cc1cc(C#N)ccc1-c1cnn(-c2ccc(C(=O)N(C)C3CCN(C4CC4)CC3)cn2)c1O`
8.23

Please give the documented PHD Inhibition (pIC50) of `CNC(=O)c1ccc(-n2ncc(-c3ccc(C#N)cc3)c2O)nc1`
7.58

Using known records, supply PHD Inhibition (pIC50) for `COCCCNC(=O)c1ccc(-n2ncc(-c3ccc(C#N)c(C)c3)c2O)nc1`
7.99

Output measured PHD Inhibition (pIC50) for this item: `N#Cc1ccc(-c2cnn(-c3ccc(C(=O)NCc4ccccc4)cn3)c2O)c(Cl)c1`
6.84

Given `Cc1c(-c2cnn(-c3ccc(C(=O)N4CCC[C@@H](N(C)CC(F)F)C4)cn3)c2O)ccc(C#N)c1F` , respond with its PHD Inhibition (pIC50).
8.53

Give the reported PHD Inhibition (pIC50) for this compound. `CO[C@H]1CC[C@H](NC(=O)c2ccc(-n3ncc(-c4ccc(C#N)cc4C)c3O)nc2)CC1`
7.44

Read the entry `CC1(CNC(=O)c2ccc(-n3ncc(-c4ccc(C#N)cc4)c3O)nc2)COC1` and write its reported PHD Inhibition (pIC50).
7.39

Provide one value: measured PHD Inhibition (pIC50) of `N#Cc1ccc(-c2cnn(-c3ccc(C(=O)NCC4CCOCC4)cn3)c2O)cc1F`
7.49

Quickly give me recorded PHD Inhibition (pIC50) for `O=C(NCc1ccccc1)c1ccc(-n2ncc(-c3ccccn3)c2O)cc1`
5.69

Report measured PHD Inhibition (pIC50); entry is `Cc1cc(C#N)c(F)cc1-c1cnn(-c2ccc(C(=O)N3CC(N(C)C)C3)cn2)c1O`
7.88

Identify the reported PHD Inhibition (pIC50) for the following entry. `COc1cc(-c2cnn(-c3ccc(C(=O)NCC4CCOCC4)cn3)c2O)c(F)cn1`
8

Read the entry `Cc1c(-c2cnn(-c3ccc(C(=O)N4CCN(C(C)C)[C@@H](C)C4)cn3)c2O)ccc(C#N)c1F` and write its reported PHD Inhibition (pIC50).
8.29

====

Biological target: PHD2 enzyme (residues 181-417) (Homo sapiens (Human))
Assay: Inhibition of PHD enzyme (LC/MS peptide hydroxylation assay)
Assay type: biochemical
Conditions: PHD2 (residues 181-417) 5 nM, 60 min pre-incubation; -log(IC50), IC50 molar
PARAMETER: PHD Inhibition (pIC50)
Give the value as a plain number.

Example cases with answers are listed next.
COMPOUND: O=C(NCC1CCOCC1)c1ccc(-n2ncc(-n3ccc(=O)cc3)c2O)nc1
PARAMETER: PHD Inhibition (pIC50)
MEASURED: 7
//
COMPOUND: Cc1cc(C#N)ccc1-c1cnn(-c2ccc(C(=O)N3CCN(C(C)C)[C@H](C)C3)cn2)c1O
PARAMETER: PHD Inhibition (pIC50)
MEASURED: 8.20

Return PHD Inhibition (pIC50) for the following compound: `Cc1cc(-n2ncc(-c3ccc(C#N)cc3)c2O)ncc1C(=O)N(C)C1CCN(C)CC1`
7.31

Hello, please tell me recorded PHD Inhibition (pIC50) for this one: COCCC(C)NC(=O)c1ccc(-n2ncc(-c3ccnc(OC)c3)c2O)nc1 (stereo not drawn)
6.55

Fill in reported PHD Inhibition (pIC50) for this entry: COc1cc(-c2cnn(-c3ccc(C(=O)NCCC4CCCN4C)cn3)c2O)ccn1 (stereo not drawn)
7.5

Please report the measured PHD Inhibition (pIC50) for `N#Cc1ccc(-c2cnn(-c3ccc(C(=O)NCCOC(F)(F)F)cn3)c2O)cc1`
7.51

Return PHD Inhibition (pIC50) for the following compound: `COCCCNC(=O)c1ccc(-n2ncc(-c3ccc(C#N)cc3OC)c2O)nc1`
6.95

For `COc1cc(-c2cnn(-c3ccc(C(=O)NCCCn4cccn4)cn3)c2O)ccn1` , write its PHD Inhibition (pIC50).
8.2

Tell us which PHD Inhibition (pIC50) value is on record for `COc1cc(C#N)ccc1-c1cnn(-c2ccc(C(=O)NC3CC3)cn2)c1O`
7.01

Identify measured PHD Inhibition (pIC50) associated with `COCCC1(NC(=O)c2ccc(-n3ncc(-c4ccc(C#N)cc4)c3O)nc2)CC1`
7.8
